measurement notes: Solubility of fosfluconazole derivatives in pharmaceutical solvents (Table 2)
Type: physicochemical
experimental parameters: aqueous with cosolvent or surfactant or cyclodextrin, thermodynamic from solid; H2O/polysorbate 80 (80/20), 25° C.
Parameter: solubility at 24 h. Scope: all listed entries.
property name: solubility at 24 h

compound=C[N+](C)(C)CCOP(=O)([O-])OC(Cn1cncn1)(Cn1cncn1)c1ccc(F)cc1F readout_value="8300 µg/mL"
compound="CCOP(=O)(O[C@H]1CC[C@@]2(C)C(=CC[C@H]3[C@@H]4CC[C@H]([C@H](C)CCCC(C)C)[C@@]4(C)CC[C@@H]32)C1)OC(Cn1cncn1)(Cn1cncn1)c1ccc(F)cc1F (stereo partly drawn)" readout_value="4500 µg/mL"
compound=CCCCCCCCCOP(=O)([O-])OC(Cn1cncn1)(Cn1cncn1)c1ccc(F)cc1F.[Na+] readout_value="> 10000 µg/mL"
